biological target: binding partner of C5A (XPA23); assay: Biacore
For each of the binders below, state its fold difference in affinity vs original.
One number for each entry, in fold.

Fill in fold difference in affinity vs original for each of the 3 binders listed.
1. C5A (XPA23) VH T58V (antibody, V domains shown) VH: EVQLLESGGGLVQPGGSLRLSCAASGFTFSKYFMFWVRQAPGKGLEWVSVISPSGGMVRYADSVKGRFTISRDNSKNTLYLQMNSLRAEDTAVYYCARVGYGGNSDYWGQGTLVTVSS VL: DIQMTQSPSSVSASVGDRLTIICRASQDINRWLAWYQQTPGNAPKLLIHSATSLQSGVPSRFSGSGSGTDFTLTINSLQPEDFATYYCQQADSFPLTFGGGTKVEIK
2. C5A (XPA23) VH I51T (antibody, V domains shown) VH: EVQLLESGGGLVQPGGSLRLSCAASGFTFSKYFMFWVRQAPGKGLEWVSVTSPSGGMTRYADSVKGRFTISRDNSKNTLYLQMNSLRAEDTAVYYCARVGYGGNSDYWGQGTLVTVSS VL: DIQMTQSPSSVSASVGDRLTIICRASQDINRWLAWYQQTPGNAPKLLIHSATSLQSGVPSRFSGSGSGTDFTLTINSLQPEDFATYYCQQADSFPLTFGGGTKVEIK
3. C5A (XPA23) VH M57V (antibody, V domains shown) VH: EVQLLESGGGLVQPGGSLRLSCAASGFTFSKYFMFWVRQAPGKGLEWVSVISPSGGVTRYADSVKGRFTISRDNSKNTLYLQMNSLRAEDTAVYYCARVGYGGNSDYWGQGTLVTVSS VL: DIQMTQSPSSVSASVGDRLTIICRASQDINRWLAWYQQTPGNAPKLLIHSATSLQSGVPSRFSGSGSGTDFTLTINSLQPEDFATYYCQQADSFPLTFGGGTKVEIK

[0.99, 0.86, 0.03]
